Test system: transient receptor potential cation channel C4 beta (TRPC4), mouse
Test: activators of mouse TRPC4 channel, confirmation, cell-based, second round, Fluo4, HEK293 TRPC4beta/mu-opioid, 1 µM (AID 2461)
Settings: Fluo4 calcium fluorescence, at 1 µM
Activity calls are given as the source filed them.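 Rule for the calls: active = primary screen active and over 50% activation in each of two duplicate runs; inactive = the rest.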
Pick one and only one: active, inactive

# MOLECULE, DISCRETE_LABEL
measured = [
    ("CC(C)(C)c1ccccc1NC(=O)NC1CCN(Cc2c(F)cccc2Cl)CC1", "inactive"),
    ("Cc1ccc(-n2cc(CNCCc3ncc(C)[nH]3)c(-c3ccc(F)cc3)n2)cc1", "inactive"),
    ("Cc1cc(OCCCn2ccnc2)cc(C)c1Cl", "inactive"),
]

Exam item: How did this test come out for Cc1ccc(C(=O)NNC(=S)NC(=O)c2ccc(Cl)cc2)cc1 ?
Marked response: inactive

Exam item: Also check CC(Oc1ccc(Cl)cc1)C(=O)NNC(=S)NC(=O)c1ccco1 (stereo not drawn)
Marked response: inactive

Exam item: Also check CC1CCCN(CCCNC(=O)c2ccc3c(c2)N(Cc2ccccc2F)C(=O)c2ccccc2S3(=O)=O)C1 (stereo not drawn)
Marked response: active

Exam item: Also check CN(C)C(CNC(=O)C1CC(=O)N(Cc2ccccc2)C1)c1ccccc1 (stereo not drawn)
Marked response: inactive

Exam item: Also check Cc1cc(NCc2ccccc2)nc2ccccc12
Marked response: inactive

Exam item: Also check Cc1sc2ncnc(NCC(C)(C)N3CCOCC3)c2c1C
Marked response: active

Exam item: Also check COc1cc(/C=C/C(=O)c2ccc3c(c2)OCO3)cc(Cl)c1O
Marked response: inactive

These entries and their values trace back to PubChem BioAssay.
